conditions: in acetone, 323.24 K
endpoint: solubility (mole fraction)
Give the figure only, with no unit attached.

compound O=P(O)(c1ccccc1)c1ccccc1 , solubility (mole fraction) observed: 0.00244

###

conditions: in isopropanol, 347.8 K
endpoint: solubility (mole fraction)
Give the figure only, with no unit attached.

molecule O=P(O)(c1ccccc1)c1ccccc1 , solubility (mole fraction) observed: 0.0257

###

conditions: in 2-ethoxyethanol, 363.1 K
endpoint: solubility (mole fraction)
Give the figure only, with no unit attached.

compound O=P(O)(c1ccccc1)c1ccccc1 , solubility (mole fraction) observed: 0.0401

###

settings: in isopropanol, 303.09 K
endpoint: solubility (mole fraction)
Give the figure only, with no unit attached.

compound O=P(O)(c1ccccc1)c1ccccc1 , solubility (mole fraction) observed: 0.00696

###

details: in ethyl acetate, 308.17 K
endpoint: solubility (mole fraction)
Give the figure only, with no unit attached.

compound O=P(O)(c1ccccc1)c1ccccc1 , solubility (mole fraction) observed: 0.00098

###

conditions: in acetic acid, 343.04 K
endpoint: solubility (mole fraction)
Give the figure only, with no unit attached.

compound O=P(O)(c1ccccc1)c1ccccc1 , solubility (mole fraction) observed: 0.0209

###

details: in 2-ethoxyethanol, 293.18 K
endpoint: solubility (mole fraction)
Give the figure only, with no unit attached.

compound O=P(O)(c1ccccc1)c1ccccc1 , solubility (mole fraction) observed: 0.00716

###

settings: in isopropanol, 297.98 K
endpoint: solubility (mole fraction)
Give the figure only, with no unit attached.

compound O=P(O)(c1ccccc1)c1ccccc1 , solubility (mole fraction) observed: 0.00594

###

details: in 2-ethoxyethanol, 348.24 K
endpoint: solubility (mole fraction)
Give the figure only, with no unit attached.

compound O=P(O)(c1ccccc1)c1ccccc1 , solubility (mole fraction) observed: 0.0285

###

settings: in acetone, 313.19 K
endpoint: solubility (mole fraction)
Give the figure only, with no unit attached.

compound O=P(O)(c1ccccc1)c1ccccc1 , solubility (mole fraction) observed: 0.00156

###

conditions: in ethyl acetate, 293.06 K
endpoint: solubility (mole fraction)
Give the figure only, with no unit attached.

compound O=P(O)(c1ccccc1)c1ccccc1 , solubility (mole fraction) observed: 0.00052

###

settings: in acetone, 318.21 K
endpoint: solubility (mole fraction)
Give the figure only, with no unit attached.

compound O=P(O)(c1ccccc1)c1ccccc1 , solubility (mole fraction) observed: 0.00203

###

conditions: in isopropanol, 308.05 K
endpoint: solubility (mole fraction)
Give the figure only, with no unit attached.

molecule O=P(O)(c1ccccc1)c1ccccc1 , solubility (mole fraction) observed: 0.00803

###

conditions: in toluene, 293.15 K
endpoint: solubility (mole fraction)

compound O=P(O)(c1ccccc1)c1ccccc1 , solubility (mole fraction) observed: 0.00049

###

settings: in acetone, 298.18 K
endpoint: solubility (mole fraction)

compound O=P(O)(c1ccccc1)c1ccccc1 , solubility (mole fraction) observed: 0.00068

###

conditions: in benzene, 333.21 K
endpoint: solubility (mole fraction)
Give the figure only, with no unit attached.

compound O=P(O)(c1ccccc1)c1ccccc1 , solubility (mole fraction) observed: 0.00459

###

settings: in isopropanol, 323.08 K
endpoint: solubility (mole fraction)
Give the figure only, with no unit attached.

compound O=P(O)(c1ccccc1)c1ccccc1 , solubility (mole fraction) observed: 0.0123

###

conditions: in 2-ethoxyethanol, 343.24 K
endpoint: solubility (mole fraction)
Give the figure only, with no unit attached.

compound O=P(O)(c1ccccc1)c1ccccc1 , solubility (mole fraction) observed: 0.0252

###

conditions: in water, 313.17 K
endpoint: solubility (mole fraction)
Give the figure only, with no unit attached.

compound O=P(O)(c1ccccc1)c1ccccc1 , solubility (mole fraction) observed: 8e-05

###

conditions: in ethyl acetate, 333.25 K
endpoint: solubility (mole fraction)
Give the figure only, with no unit attached.

compound O=P(O)(c1ccccc1)c1ccccc1 , solubility (mole fraction) observed: 0.00247

###

settings: in ethanol, 298.07 K
endpoint: solubility (mole fraction)

compound O=P(O)(c1ccccc1)c1ccccc1 , solubility (mole fraction) observed: 0.00889

###

details: in 2-ethoxyethanol, 303.04 K
endpoint: solubility (mole fraction)
Give the figure only, with no unit attached.

compound O=P(O)(c1ccccc1)c1ccccc1 , solubility (mole fraction) observed: 0.00924

###

conditions: in ethanol, 327.94 K
endpoint: solubility (mole fraction)
Give the figure only, with no unit attached.

molecule O=P(O)(c1ccccc1)c1ccccc1 , solubility (mole fraction) observed: 0.0198

###

conditions: in water, 353.05 K
endpoint: solubility (mole fraction)
Give the figure only, with no unit attached.

compound O=P(O)(c1ccccc1)c1ccccc1 , solubility (mole fraction) observed: 0.00023

###

settings: in acetic acid, 293.23 K
endpoint: solubility (mole fraction)
Give the figure only, with no unit attached.

molecule O=P(O)(c1ccccc1)c1ccccc1 , solubility (mole fraction) observed: 0.00426

###

settings: in benzene, 313.17 K
endpoint: solubility (mole fraction)
Give the figure only, with no unit attached.

compound O=P(O)(c1ccccc1)c1ccccc1 , solubility (mole fraction) observed: 0.00183

###

details: in acetic acid, 303.15 K
endpoint: solubility (mole fraction)
Give the figure only, with no unit attached.

molecule O=P(O)(c1ccccc1)c1ccccc1 , solubility (mole fraction) observed: 0.00604

###

details: in 2-ethoxyethanol, 328.2 K
endpoint: solubility (mole fraction)
Give the figure only, with no unit attached.

compound O=P(O)(c1ccccc1)c1ccccc1 , solubility (mole fraction) observed: 0.0172

###

settings: in ethyl acetate, 337.95 K
endpoint: solubility (mole fraction)
Give the figure only, with no unit attached.

compound O=P(O)(c1ccccc1)c1ccccc1 , solubility (mole fraction) observed: 0.00318

###

settings: in toluene, 362.65 K
endpoint: solubility (mole fraction)

compound O=P(O)(c1ccccc1)c1ccccc1 , solubility (mole fraction) observed: 0.00651

###

details: in ethanol, 342.9 K
endpoint: solubility (mole fraction)
Give the figure only, with no unit attached.

compound O=P(O)(c1ccccc1)c1ccccc1 , solubility (mole fraction) observed: 0.0302

###

settings: in toluene, 323.08 K
endpoint: solubility (mole fraction)
Give the figure only, with no unit attached.

compound O=P(O)(c1ccccc1)c1ccccc1 , solubility (mole fraction) observed: 0.00157

###

details: in 2-ethoxyethanol, 338.03 K
endpoint: solubility (mole fraction)
Give the figure only, with no unit attached.

molecule O=P(O)(c1ccccc1)c1ccccc1 , solubility (mole fraction) observed: 0.0223

###

conditions: in ethanol, 283.15 K
endpoint: solubility (mole fraction)
Give the figure only, with no unit attached.

compound O=P(O)(c1ccccc1)c1ccccc1 , solubility (mole fraction) observed: 0.00575

###

settings: in toluene, 343.25 K
endpoint: solubility (mole fraction)
Give the figure only, with no unit attached.

compound O=P(O)(c1ccccc1)c1ccccc1 , solubility (mole fraction) observed: 0.00326

###

conditions: in ethyl acetate, 328.13 K
endpoint: solubility (mole fraction)

compound O=P(O)(c1ccccc1)c1ccccc1 , solubility (mole fraction) observed: 0.00208

###

conditions: in ethanol, 313.16 K
endpoint: solubility (mole fraction)

compound O=P(O)(c1ccccc1)c1ccccc1 , solubility (mole fraction) observed: 0.0134

###

details: in ethanol, 337.97 K
endpoint: solubility (mole fraction)
Give the figure only, with no unit attached.

compound O=P(O)(c1ccccc1)c1ccccc1 , solubility (mole fraction) observed: 0.0264

###

details: in ethanol, 333.1 K
endpoint: solubility (mole fraction)
Give the figure only, with no unit attached.

compound O=P(O)(c1ccccc1)c1ccccc1 , solubility (mole fraction) observed: 0.0231

###

settings: in 2-ethoxyethanol, 298.17 K
endpoint: solubility (mole fraction)
Give the figure only, with no unit attached.

compound O=P(O)(c1ccccc1)c1ccccc1 , solubility (mole fraction) observed: 0.0081

###

conditions: in ethyl acetate, 318.04 K
endpoint: solubility (mole fraction)
Give the figure only, with no unit attached.

molecule O=P(O)(c1ccccc1)c1ccccc1 , solubility (mole fraction) observed: 0.00144

###

settings: in 2-ethoxyethanol, 288.15 K
endpoint: solubility (mole fraction)
Give the figure only, with no unit attached.

molecule O=P(O)(c1ccccc1)c1ccccc1 , solubility (mole fraction) observed: 0.00619

###

settings: in acetic acid, 313.03 K
endpoint: solubility (mole fraction)
Give the figure only, with no unit attached.

molecule O=P(O)(c1ccccc1)c1ccccc1 , solubility (mole fraction) observed: 0.00827

###

settings: in isopropanol, 313.15 K
endpoint: solubility (mole fraction)

molecule O=P(O)(c1ccccc1)c1ccccc1 , solubility (mole fraction) observed: 0.00931

###

details: in ethyl acetate, 323.1 K
endpoint: solubility (mole fraction)
Give the figure only, with no unit attached.

compound O=P(O)(c1ccccc1)c1ccccc1 , solubility (mole fraction) observed: 0.00176

###

conditions: in 2-ethoxyethanol, 313.15 K
endpoint: solubility (mole fraction)
Give the figure only, with no unit attached.

compound O=P(O)(c1ccccc1)c1ccccc1 , solubility (mole fraction) observed: 0.0118

###

conditions: in 2-ethoxyethanol, 308.11 K
endpoint: solubility (mole fraction)
Give the figure only, with no unit attached.

compound O=P(O)(c1ccccc1)c1ccccc1 , solubility (mole fraction) observed: 0.0106

###

details: in isopropanol, 293.15 K
endpoint: solubility (mole fraction)
Give the figure only, with no unit attached.

compound O=P(O)(c1ccccc1)c1ccccc1 , solubility (mole fraction) observed: 0.00503
